- System: HeLa Kyoto;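 further: synchronized HeLa Kyoto cells, proteins quantified by TMT10plex mass spectrometry, three biological replicates, mitosis taken 0.5 h after nocodazole release, G1/S directly after double thymidine block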
- assay.info: thermal stability score vs G1/S (z-score of summed log2 fold changes over temperatures); higher = more thermally stable than in G1/S
- assay.context: cell cycle stage: early G1 (4.5 h after nocodazole release)
Recorded measurements of thermal stability score, one per entry

[
  {
    "sequence.entry": "MAQQQMTSSQKALMLELKSLQEEPVEGFRITLVDESDLYNWEVAIFGPPNTLYEGGYFKAHIKFPIDYPYSPPTFRFLTKMWHPNIYENGDVCISILHPPVDDPQSGELPSERWNPTQNVRTILLSVISLLNEPNTFSPANVDASVMFRKWRDSKGKDKEYAEIIRKQVSATKAEAEKDGVKVPTTLAEYCIKTKVPSNDNSSDLLYDDLYDDDIDDEDEEEEDADCYDDDDSGNEES [UBE2R2]",
    "thermal stability score": -2.34
  },
  {
    "sequence.entry": "MAPLGGAPRLVLLFSGKRKSGKDFVTEALQSRLGADVCAVLRLSGPLKEQYAQEHGLNFQRLLDTSTYKEAFRKDMIRWGEEKRQADPGFFCRKIVEGISQPIWLVSDTRRVSDIQWFREAYGAVTQTVRVVALEQSRQQRGWVFTPGVDDAESECGLDNFGDFDWVIENHGVEQRLEEQLENLIEFIRSRL [PMVK]",
    "thermal stability score": 1.41
  },
  {
    "sequence.entry": "METSAPRAGSQVVATTARHSAAYRADPLRVSSRDKLTEMAASSQGNFEGNFESLDLAEFAKKQPWWRKLFGQESGPSAEKYSVATQLFIGGVTGWCTGFIFQKVGKLAATAVGGGFFLLQLANHTGYIKVDWQRVEKDMKKAKEQLKIRKSNQIPTEVRSKAEEVVSFVKKNVLVTGGFFGGFLLGMAS [FUNDC2]",
    "thermal stability score": -0.847
  },
  {
    "sequence.entry": "MAAAAAAAAAAGAAGGRGSGPGRRRHLVPGAGGEAGEGAPGGAGDYGNGLESEELEPEELLLEPEPEPEPEEEPPRPRAPPGAPGPGPGSGAPGSQEEEEEPGLVEGDPGDGAIEDPELEAIKARVREMEEEAEKLKELQNEVEKQMNMSPPPGNAGPVIMSIEEKMEADARSIYVGNVDYGATAEELEAHFHGCGSVNRVTILCDKFSGHPKGFAYIEFSDKESVRTSLALDESLFRGRQIKVIPKRTNRPGISTTDRGFPRARYRARTTNYNSSRSRFYSGFNSRPRGRVYRGRARATSWYSPY [PABPN1]",
    "thermal stability score": 1.6
  },
  {
    "sequence.entry": "MCGNNMSTPLPAIVPAARKATAAVIFLHGLGDTGHGWAEAFAGIRSSHIKYICPHAPVRPVTLNMNVAMPSWFDIIGLSPDSQEDESGIKQAAENIKALIDQEVKNGIPSNRIILGGFSQGGALSLYTALTTQQKLAGVTALSCWLPLRASFPQGPIGGANRDISILQCHGDCDPLVPLMFGSLTVEKLKTLVNPANVTFKTYEGMMHSSCQQEMMDVKQFIDKLLPPID [LYPLA1]",
    "thermal stability score": 0.0704
  },
  {
    "sequence.entry": "MVKLAAKCILAGDPAVGKTALAQIFRSDGAHFQKSYTLTTGMDLVVKTVPVPDTGDSVELFIFDSAGKELFSEMLDKLWESPNVLCLVYDVTNEESFNNCSKWLEKARSQAPGISLPGVLVGNKTDLAGRRAVDSAEARAWALGQGLECFETSVKEMENFEAPFHCLAKQFHQLYREKVEVFRALA [IFT27]",
    "thermal stability score": -0.15
  }
]
